Data provenance: ChEMBL document CHEMBL1268915

Biological target: UniProt P07711
Sequence (P07711 114-333 limits assumed): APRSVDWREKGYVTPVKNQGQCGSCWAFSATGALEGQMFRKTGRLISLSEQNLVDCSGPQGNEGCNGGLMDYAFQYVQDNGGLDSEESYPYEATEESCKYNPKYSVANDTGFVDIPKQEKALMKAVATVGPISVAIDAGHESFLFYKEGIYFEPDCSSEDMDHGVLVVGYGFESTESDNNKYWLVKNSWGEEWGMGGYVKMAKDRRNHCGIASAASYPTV
Assay: Inhibition of human cathepsin L at 100uM
Active and inactive are the calls of the source. The rule behind the calls is not given here. Residues, ends and D or L forms follow the SMILES beside them. *: point of attachment. NHBn = c1ccc(CN*)cc1; Bn = c1ccc(C*)cc1
observed property: inhibition

Below: 10 molecules and their reported inhibition.
[[record]]
molecule = "Cc1ccc(CNC(=O)[C@H](CCc2ccccc2)NC(=O)[C@H](CCc2ccccc2)NC(=O)Cc2cccc(Oc3ccccc3)c2)cc1"
observed_property = "inhibition"
value = "Active"

[[record]]
molecule = "CCNC(=O)[C@H](CCc1ccccc1)NC(=O)[C@@H](NC(=O)c1ccc(OCc2ccccc2)cc1)[C@@H](C)O"
observed_property = "inhibition"
value = "Active"

[[record]]
molecule = "C[C@H](NC(=O)[C@@H](N)Cc1ccc(OCc2ccccc2)cc1)C(=O)N[C@@H](Cc1c[nH]c2ccccc12)C(=O)NCc1ccccc1 (H-Tyr(Bn)-Ala-Trp-NHBn)"
observed_property = "inhibition"
value = "Active"

[[record]]
molecule = "C[C@@H](O)[C@H](NC(=O)c1ccc(OCc2ccccc2)cc1)C(=O)N[C@@H](CCc1ccccc1)C(=O)NCCc1cccs1"
observed_property = "inhibition"
value = "Active"

[[record]]
molecule = "COc1ccc2c(c1)CC(C(=O)N[C@H](C(=O)N[C@@H](CCc1ccccc1)C(=O)NCc1ccc(C)cc1)[C@@H](C)O)CC2 (stereo partly specified)"
observed_property = "inhibition"
value = "Active"

[[record]]
molecule = "C[C@@H](O)[C@H](NC(=O)c1ccc(OCc2ccccc2)cc1)C(=O)N[C@@H](CCc1ccccc1)C(=O)NCc1ccccc1"
observed_property = "inhibition"
value = "Active"

[[record]]
molecule = "Cc1ccccc1CCC(=O)N[C@H](C(=O)N[C@@H](CCc1ccccc1)C(=O)NCc1ccccc1Cl)[C@@H](C)O"
observed_property = "inhibition"
value = "Active"

[[record]]
molecule = "CC(C)C[C@H](NC(=O)[C@H](Cc1ccccc1)NC(=O)c1cnccn1)B(O)O"
observed_property = "inhibition"
value = "Active"

[[record]]
molecule = "Cc1ccc(CNC(=O)[C@H](CCc2ccccc2)NC(=O)[C@@H](NC(=O)CCc2ccccc2C)[C@@H](C)O)cc1"
observed_property = "inhibition"
value = "Active"

[[record]]
molecule = "Cc1ccc(CNC(=O)[C@H](CCc2ccccc2)NC(=O)[C@H](CCc2ccccc2)NC(=O)[C@H](CCc2ccccc2)NC(=O)c2cnc(C)cn2)cc1"
observed_property = "inhibition"
value = "Active"


// next entry
Req: Which inhibition value belongs to C[C@@H](O)[C@H](NC(=O)c1ccc(OCc2ccccc2)cc1)C(=O)N[C@@H](CCc1ccccc1)C(=O)NCc1ccccc1Cl ?
Resp: Active
